All values here come from patent US8835429B2.

- System: UniProtKB P42345
- Measurement protocol: mTOR enzyme assay (DELFIA, purified FLAG-TOR, His6-S6K substrate)
- Assay type: biochemical
- Design: FLAG
- Run parameters: 100 μM ATP, 2 hours
Measured IC50 accompanies every entry in the list below.
API: value field is a number in nM; no unit string.

For orientation, consider the following solved cases.
> print(dat)
                                smiles.data  reported.result
1      Nc1ccc(-c2nccc(N3CC4CCC(C3)O4)n2)cc1             4000
2  CNC(=O)Nc1ccc(-c2nc(-c3ccccc3)cc(N3CC4CCC(C3)O4)n2)cc1               22
3  CCN(CC)c1cc(N2C3CCC2COC3)nc(-c2ccc(NC(=O)Nc3ccncc3)cc2)n1             4.55
4  NC(=O)c1ccc(NC(=O)Nc2ccc(-c3cc(N4CC5CCC(C4)O5)nc(-c4ccc(NC(=O)Nc5ccc(C(N)=O)cc5)cc4)n3)cc2)cc1             0.58

For C[C@@H]1COCCN1c1cc(N2C3CCC2COC3)nc(-c2ccc(NC(=O)Nc3ccncc3)cc2)n1 , what is its reported IC50?
0.645

Now consider CNC(=O)Nc1ccc(-c2cc(N3CC4CCC(C3)O4)nc(N3CC4CCC(C3)O4)n2)cc1 .
20.5

And then CN1CCN(c2ccc(NC(=O)Nc3ccc(-c4nc(NC5CCOCC5)cc(N5C6CCC5COC6)n4)cc3)cc2)CC1 , what is it?
7.5

* * *

- System: PI3K-alpha (Homo sapiens)
- Measurement protocol: PI3K-alpha fluorescence polarization assay
- Type: biochemical
- Run parameters: 20 μM PIP2, 25 μM ATP; read-out: PI3Kα IC50
Overview of reported IC50 across a group of compounds:
Kindly answer with a numeric value in nM, unit omitted.

# count of solved cases: 3
> print(dat)
                                smiles.data  observed.property  units.text  reported.result
1  O=C(Nc1ccc(CO)cc1)Nc1ccc(-c2nc(-c3ccccc3)cc(N3CC4CCC(C3)O4)n2)cc1               IC50          nM              102
2  CC(C)Nc1cc(N2C3CCC2COC3)nc(-c2ccc(NC(=O)Nc3cccnc3)cc2)n1               IC50          nM             4350
3  CC(C)Nc1cc(N2C3CCC2COC3)nc(-c2ccc(NC(=O)Nc3ccc(CN(C)C)cc3)cc2)n1               IC50          nM             1190

# input compound: CNC(=O)Nc1ccc(-c2nc(N3CC4CCC(C3)O4)cc(N3CC4CCC(C3)O4)n2)cc1 ; wanted: its IC50
1080

Now try CN(C)CCOc1ccc(NC(=O)Nc2ccc(-c3nc(-c4ccccc4)cc(N4CC5CCC(C4)O5)n3)cc2)cc1 .
141

Item: CN1CCN(Cc2ccc(NC(=O)Nc3ccc(-c4nc(N5C6CCC5COC6)cc(N5C[C@H]6C[C@@H]5CO6)n4)cc3)cc2)CC1
1190

* * *

- System: mTOR (Homo sapiens, UniProt P42345)
- Sequence (P42345 1360-2549 limits assumed): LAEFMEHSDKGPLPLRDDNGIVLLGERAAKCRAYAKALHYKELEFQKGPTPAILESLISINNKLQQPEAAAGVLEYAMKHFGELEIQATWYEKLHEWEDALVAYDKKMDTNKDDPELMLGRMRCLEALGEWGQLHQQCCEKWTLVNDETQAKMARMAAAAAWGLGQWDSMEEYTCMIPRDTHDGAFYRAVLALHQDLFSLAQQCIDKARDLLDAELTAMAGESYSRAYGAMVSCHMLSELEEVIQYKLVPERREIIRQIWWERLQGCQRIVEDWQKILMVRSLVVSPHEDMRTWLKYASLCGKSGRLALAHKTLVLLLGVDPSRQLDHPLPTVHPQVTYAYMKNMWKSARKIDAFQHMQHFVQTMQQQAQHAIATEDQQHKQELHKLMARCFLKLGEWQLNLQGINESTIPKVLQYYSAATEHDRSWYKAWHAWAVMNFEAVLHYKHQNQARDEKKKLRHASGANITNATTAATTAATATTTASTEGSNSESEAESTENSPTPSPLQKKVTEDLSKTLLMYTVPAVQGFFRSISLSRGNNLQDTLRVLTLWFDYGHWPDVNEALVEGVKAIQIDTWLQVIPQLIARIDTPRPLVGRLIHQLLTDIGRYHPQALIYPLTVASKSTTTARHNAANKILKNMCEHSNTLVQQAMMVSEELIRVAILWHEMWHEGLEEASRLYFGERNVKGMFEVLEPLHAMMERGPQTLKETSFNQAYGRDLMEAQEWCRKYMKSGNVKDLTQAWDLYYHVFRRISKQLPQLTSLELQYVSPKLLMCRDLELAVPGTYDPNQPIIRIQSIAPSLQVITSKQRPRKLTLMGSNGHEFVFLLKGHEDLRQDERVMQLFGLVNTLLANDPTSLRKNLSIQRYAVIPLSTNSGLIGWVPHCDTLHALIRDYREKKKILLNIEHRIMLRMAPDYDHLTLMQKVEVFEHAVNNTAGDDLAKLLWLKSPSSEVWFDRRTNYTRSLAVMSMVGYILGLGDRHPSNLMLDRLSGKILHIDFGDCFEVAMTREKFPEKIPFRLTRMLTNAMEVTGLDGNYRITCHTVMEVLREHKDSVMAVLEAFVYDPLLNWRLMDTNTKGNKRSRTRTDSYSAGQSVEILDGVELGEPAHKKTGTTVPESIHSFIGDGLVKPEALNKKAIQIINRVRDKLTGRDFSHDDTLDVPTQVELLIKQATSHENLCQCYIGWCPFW
- Measurement protocol: mTOR enzyme assay (DELFIA, purified FLAG-TOR, His6-S6K substrate)
- Assay type: biochemical
- Parameters: FLAG
- Run parameters: 100 μM ATP, 2 hours
pIC50: −log10 of the molar value.
Classify by measured pIC50: y if it is equal to or exceeds 8, n if it is smaller.

Worked cases, answers included:
> print(dat)
                                smiles.data  assigned.class
1  CC(C)Nc1cc(N2C3CCC2COC3)nc(-c2ccc(NC(=O)Nc3ccc(CN4CCN(C)CC4)cc3)cc2)n1               y
2  CC(C)Nc1cc(N2C3COCC2COC3)nc(-c2ccc(NC(=O)Nc3ccncc3)cc2)n1               y
3  O=C(Nc1ccc(-c2cc(N3CC4CCC(C3)O4)nc(N3CC4CCC(C3)O4)n2)cc1)NC1CC1               n
4  CS(=O)(=O)Cc1cc(N2CC3CCC(C2)O3)nc(-c2ccc(NC(=O)NC3CC3)cc2)n1               y
5  CCNC(=O)Nc1ccc(-c2nc(CN(C)C)cc(N3C4CCC3COC4)n2)cc1               n

Determine whether this molecule has pIC50 no lower than 8: CNC(=O)Nc1ccc(-c2cc(N3CC4CCC(C3)O4)nc(-c3ccc(NC(=O)NC)cc3)n2)cc1
y

And what about the molecule CC(C)Nc1cc(N2C3CCC2COC3)nc(-c2ccc(NC(=O)Nc3ccc(N4CCN(C)CC4)cc3)cc2)n1 ?
y

And CN1CCN(C(=O)c2ccc(NC(=O)Nc3ccc(-c4nc(C5CCOCC5)cc(N5C6CCC5COC6)n4)cc3)cc2)CC1 ?
y

What do you have for CCN(C(=O)Nc1ccncc1)c1ccc(-c2nc(N3CC4CCC(C3)O4)cc(N3CC4CCC(C3)O4)n2)cc1 ?
n

Moving on to the next molecule: CNC(=O)Nc1ccc(-c2nc(OC(C)C)cc(N3CC4CCC(C3)O4)n2)cc1
y

* * *

Test system PI3K-alpha (Homo sapiens, UniProt P42336), IC50 listed for each of the compounds.
State just the number; it will be interpreted in nM.

> print(dat)
                                smiles.data  observed.property  reported.result
1  O=C(Nc1ccc(-c2cc(N3CC4CCC(C3)O4)nc(-c3ccc(NC(=O)OCCO)cc3)n2)cc1)OCCO               IC50             5000
2  CC(C)Nc1cc(N2C3CCC2COC3)nc(-c2ccc(NC(=O)Nc3ccc(N4CCN(C)CC4)cc3)cc2)n1               IC50             2000

Query compound follows.
I am curious: what IC50 value has been reported for C[C@@H]1COCCN1c1cc(N2C3CCC2COC3)nc(-c2ccc(NC(=O)Nc3ccc(N4CCN(C)CC4)nc3)cc2)n1 ?
1100

* * *

- System: UniProtKB P42345
- Measurement protocol: mTOR enzyme assay (DELFIA, purified FLAG-TOR, His6-S6K substrate)
- Format: biochemical
- Set-up: FLAG
- Run parameters: 100 μM ATP, 2 hours
Observed property: log10 IC50 (log10 of the value in nM)
Values below are the log10 of the recorded IC50, with nM as the unit.

Below, 5 compounds whose answers are already recorded.
> print(dat)
                                smiles.data  observed.property  reported.result
1  CCN(CC)c1cc(N2C3CCC2COC3)nc(-c2ccc(NC(=O)Nc3ccc(N4CCN(C)CC4)cc3)cc2)n1         log10 IC50             0.77
2  CNC(=O)Nc1ccc(-c2nc(NC(C)C)cc(N3CC4CCC(C3)O4)n2)cc1         log10 IC50             1.08
3  CCNC(=O)Nc1ccc(-c2nc(-c3ccccc3)cc(N3CC4CCC(C3)O4)n2)cc1         log10 IC50             1.04
4  CC(C)Nc1cc(N2C3CCC2COC3)nc(-c2ccc(NC(=O)Nc3ccc(CN(C)C)cc3)cc2)n1         log10 IC50             0.42
5  C[C@@H]1CN(c2cc(N3C4CCC3COC4)nc(-c3ccc(NC(=O)Nc4ccc(N5CCN(C)CC5)cc4)cc3)n2)C[C@H](C)O1         log10 IC50             0.64

Requested field: log10 IC50. Item: CN1CCN(Cc2ccc(NC(=O)Nc3ccc(-c4nc(NC5CCOCC5)cc(N5C6CCC5COC6)n4)cc3)cc2)CC1
0.80

Lookup CC(C)N1CCN(C(=O)c2ccc(NC(=O)Nc3ccc(-c4nc(C5CCOCC5)cc(N5C6CCC5COC6)n4)cc3)cc2)CC1
-0.53

Also CC(C)Nc1cc(N2CC3CCC(C2)O3)nc(-c2ccc(NC(=O)Nc3ccncc3)cc2)n1 ?
-0.11

* * *

- System: PI3K-alpha (Homo sapiens, UniProt P42336)
- Sequence (P42336 whole entry, species assumed): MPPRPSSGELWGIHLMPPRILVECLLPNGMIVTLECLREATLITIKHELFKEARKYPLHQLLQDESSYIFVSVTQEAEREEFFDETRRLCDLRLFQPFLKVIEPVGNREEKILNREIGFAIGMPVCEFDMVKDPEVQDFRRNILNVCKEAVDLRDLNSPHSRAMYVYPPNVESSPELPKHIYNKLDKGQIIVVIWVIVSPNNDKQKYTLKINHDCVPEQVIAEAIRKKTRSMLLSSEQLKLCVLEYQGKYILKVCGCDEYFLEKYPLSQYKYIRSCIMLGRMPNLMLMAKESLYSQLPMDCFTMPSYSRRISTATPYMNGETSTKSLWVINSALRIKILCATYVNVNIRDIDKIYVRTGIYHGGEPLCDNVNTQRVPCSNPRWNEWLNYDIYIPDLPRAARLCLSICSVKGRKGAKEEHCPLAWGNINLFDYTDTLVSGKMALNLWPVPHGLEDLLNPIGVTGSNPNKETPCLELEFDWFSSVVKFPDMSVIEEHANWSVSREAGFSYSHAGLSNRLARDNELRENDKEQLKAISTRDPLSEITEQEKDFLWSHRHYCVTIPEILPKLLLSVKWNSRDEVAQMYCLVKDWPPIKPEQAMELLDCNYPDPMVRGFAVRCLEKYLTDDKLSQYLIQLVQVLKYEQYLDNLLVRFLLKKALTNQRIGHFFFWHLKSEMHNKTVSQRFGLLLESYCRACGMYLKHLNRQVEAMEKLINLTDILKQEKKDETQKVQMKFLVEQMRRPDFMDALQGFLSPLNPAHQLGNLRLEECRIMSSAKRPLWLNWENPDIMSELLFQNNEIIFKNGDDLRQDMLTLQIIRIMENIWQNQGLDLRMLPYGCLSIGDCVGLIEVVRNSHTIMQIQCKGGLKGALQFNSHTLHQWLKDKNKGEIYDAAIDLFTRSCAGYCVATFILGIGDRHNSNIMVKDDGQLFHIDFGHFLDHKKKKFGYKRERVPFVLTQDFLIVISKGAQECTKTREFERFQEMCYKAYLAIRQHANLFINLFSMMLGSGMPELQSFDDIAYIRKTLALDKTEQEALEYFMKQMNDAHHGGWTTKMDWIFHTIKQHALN
- Sequence (P27986 whole entry partner, species assumed): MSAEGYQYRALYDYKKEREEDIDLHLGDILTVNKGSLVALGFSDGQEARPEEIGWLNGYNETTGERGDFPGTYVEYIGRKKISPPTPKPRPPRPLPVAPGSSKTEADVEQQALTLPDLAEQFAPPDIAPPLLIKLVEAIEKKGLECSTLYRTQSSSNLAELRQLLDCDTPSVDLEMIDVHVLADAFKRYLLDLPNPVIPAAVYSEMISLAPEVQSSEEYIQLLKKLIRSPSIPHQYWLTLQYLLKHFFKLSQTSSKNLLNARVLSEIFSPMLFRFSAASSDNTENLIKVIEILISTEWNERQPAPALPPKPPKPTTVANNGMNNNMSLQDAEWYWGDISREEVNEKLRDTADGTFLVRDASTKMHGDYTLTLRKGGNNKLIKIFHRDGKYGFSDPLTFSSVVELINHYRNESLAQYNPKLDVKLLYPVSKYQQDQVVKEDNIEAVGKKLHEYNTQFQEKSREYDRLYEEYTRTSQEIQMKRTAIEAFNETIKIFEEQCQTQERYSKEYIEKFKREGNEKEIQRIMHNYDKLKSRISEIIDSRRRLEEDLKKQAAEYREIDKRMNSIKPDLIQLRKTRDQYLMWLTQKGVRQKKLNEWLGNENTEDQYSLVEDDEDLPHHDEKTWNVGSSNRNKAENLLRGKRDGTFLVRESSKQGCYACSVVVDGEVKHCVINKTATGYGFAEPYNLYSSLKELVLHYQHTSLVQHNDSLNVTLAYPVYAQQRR
Observed property: pIC50
Field pIC50 (float): negative decimal logarithm of the concentration in molar.

> print(dat)
                                smiles.data                                    system  reported.result
1  CC(C)Nc1cc(N2C3CCC2COC3)nc(-c2ccc(NC(=O)Nc3ccc(N4CCN(C)CC4)nc3)cc2)n1  PI3K-alpha (Homo sapiens, UniProt P42336)             5.41
2  CC(C)Nc1cc(N2C3CCC2COC3)nc(-c2ccc(NC(=O)Nc3ccc(OCCN4CCCC4)cc3)cc2)n1  PI3K-alpha (Homo sapiens, UniProt P42336)             5.88
3  C[C@@H]1COCCN1c1cc(N2C3CCC2COC3)nc(-c2ccc(NC(=O)Nc3ccc(N4CCN(C)CC4)cc3)cc2)n1  PI3K-alpha (Homo sapiens, UniProt P42336)             6.06
4  CN1CCN(C(=O)c2ccc(NC(=O)Nc3ccc(-c4nc(C5CCOCC5)cc(N5C6CCC5COC6)n4)cc3)cc2)CC1  PI3K-alpha (Homo sapiens, UniProt P42336)             6.64
5  CC(C)Nc1cc(N2C3CCC2COC3)nc(-c2ccc(NC(=O)Nc3ccncc3)cc2)n1  PI3K-alpha (Homo sapiens, UniProt P42336)             5.60
6  CCN(C(=O)Nc1ccncc1)c1ccc(-c2nc(N3CC4CCC(C3)O4)cc(N3CC4CCC(C3)O4)n2)cc1  PI3K-alpha (Homo sapiens, UniProt P42336)             5.65

Form field - read-out: pIC50; system: PI3K-alpha (Homo sapiens, UniProt P42336); submitted item: O=C(Nc1ccc(-c2nc(-c3ccccc3)cc(N3CC4CCC(C3)O4)n2)cc1)OCCO
6.34
